- measured_on: hDHFR (Homo sapiens)
- Construct: His tag; made in house; host or cells: E. coli
- Sequence (P00374 1-187): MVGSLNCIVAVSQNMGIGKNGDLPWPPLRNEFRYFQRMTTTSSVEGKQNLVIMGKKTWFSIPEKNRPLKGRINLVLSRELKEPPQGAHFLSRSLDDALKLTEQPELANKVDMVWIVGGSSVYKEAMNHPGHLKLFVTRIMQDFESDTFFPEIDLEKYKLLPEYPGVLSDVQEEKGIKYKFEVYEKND
- method_notes: hDHFR spectrophotometric enzyme inhibition assay
- Assay type: biochemical
- study_conditions: TES buffer pH 7.4, 50 µM H2FA; spread from CI95 of fitting

compound	IC50
CC1(C)N=C(N)N=C(N)N1c1ccc(O)cc1	284 µM
COc1ccc(N2C(N)=NC(NC(C)=O)=NC2(C)C)cc1	62.5 µM
NC1=NC2(CCCCC2)N(c2ccc(Cl)cc2)C(N)=N1	65.6 µM
COc1ccc(N2C(N)=NC(N)=NC2(C)C)cc1	413 µM
CCCC1N=C(N)N=C(N)N1c1ccc(Cl)cc1 (stereo not drawn)	66.7 µM
CC1N=C(N)N=C(N)N1c1ccc(Cl)cc1 (stereo not drawn)	337 µM
